experiment: recombinant UMI read abundance after kanamycin selection (control-corrected) (log10(CPM+1)); higher = more efficient recombination; extreme values may be limits of the assay; sequences stand for … in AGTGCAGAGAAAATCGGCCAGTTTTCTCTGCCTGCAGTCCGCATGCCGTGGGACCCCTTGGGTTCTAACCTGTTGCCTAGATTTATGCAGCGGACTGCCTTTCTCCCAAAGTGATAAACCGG…AGGTTGGTTTCACT; site = the 11-nt donor;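 also: IS621 bridge recombinase in Escherichia coli cells against a fixed T5 target plasmid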
metric: recombinant UMI read abundance (log10)

Q: Supply reported recombinant UMI read abundance (log10) belonging to this sequence: GTTCACGCATGGACCGGTTTTCCCGGTAATCCGTATTTGTT (site GTTCACGCTAA)
Ans: 1

Q: Supply reported recombinant UMI read abundance (log10) belonging to this sequence: CAGTCGACATGGACCGGTTTTCCCGGTAATCCGTATTTGCG (site CAGTCGACTCG)
Ans: 0.869

Q: Supply reported recombinant UMI read abundance (log10) belonging to this sequence: CCTCGTACATGGACCGGTTTTCCCGGTAATCCGTATTTGGT (site CCTCGTACTAC)
Ans: 0.0115

Q: Supply reported recombinant UMI read abundance (log10) belonging to this sequence: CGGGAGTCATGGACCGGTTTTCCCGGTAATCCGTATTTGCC (site CGGGAGACTGG)
Ans: 1.54

Q: Supply reported recombinant UMI read abundance (log10) belonging to this sequence: GGTACTGCATGGACCGGTTTTCCCGGTAATCCGTATTTGCC (site GTTACTGCTGG)
Ans: 0

Q: Supply reported recombinant UMI read abundance (log10) belonging to this sequence: GAGCTCACATGGACCGGTTTTCCCGGTAATCCGTATTTGGT (site GAGCTCACTAC)
Ans: 0.841

Q: Supply reported recombinant UMI read abundance (log10) belonging to this sequence: CAAGTCACATGGACCGGTTTTCCCGGTAATCCGTATTTGGA (site CAAGTCACTGC)
Ans: 0.803

Q: Supply reported recombinant UMI read abundance (log10) belonging to this sequence: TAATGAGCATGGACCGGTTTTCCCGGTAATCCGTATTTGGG (site TAATGAGCTAC)
Ans: 0.0203

Q: Supply reported recombinant UMI read abundance (log10) belonging to this sequence: GGTGTTCCATGGACCGGTTTTCCCGGTAATCCGTATTTGGT (site GTTGTTCCTAC)
Ans: 0

Q: Supply reported recombinant UMI read abundance (log10) belonging to this sequence: ATCCAAGCATGGACCGGTTTTCCCGGTAATCCGTATTTGTG (site ATCCAAGCTCT)
Ans: 0.581

Q: Supply reported recombinant UMI read abundance (log10) belonging to this sequence: ATAGTATCATGGACCGGTTTTCCCGGTAATCCGTATTTGCC (site CTAGTATCTGT)
Ans: 0.756

Q: Supply reported recombinant UMI read abundance (log10) belonging to this sequence: GGGTACTCATGGACCGGTTTTCCCGGTAATCCGTATTTGCT (site GGGTACTCTAG)
Ans: 3.34

Q: Supply reported recombinant UMI read abundance (log10) belonging to this sequence: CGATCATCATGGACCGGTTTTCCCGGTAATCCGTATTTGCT (site CTATCAACTAG)
Ans: 0

Q: Supply reported recombinant UMI read abundance (log10) belonging to this sequence: CACTCCTCATGGACCGGTTTTCCCGGTAATCCGTATTTGCA (site CACTCCTCTCG)
Ans: 1.09

Q: Supply reported recombinant UMI read abundance (log10) belonging to this sequence: AATGTACCATGGACCGGTTTTCCCGGTAATCCGTATTTGCT (site AATGTAACTAG)
Ans: 0

Q: Supply reported recombinant UMI read abundance (log10) belonging to this sequence: CGTTTAGCATGGACCGGTTTTCCCGGTAATCCGTATTTGCT (site CGTTTGGCTAG)
Ans: 0

Q: Supply reported recombinant UMI read abundance (log10) belonging to this sequence: CACTCCTCATGGACCGGTTTTCCCGGTAATCCGTATTTGCA (site CACTCCTCTTG)
Ans: 2.98

Q: Supply reported recombinant UMI read abundance (log10) belonging to this sequence: AGCTGAGCATGGACCGGTTTTCCCGGTAATCCGTATTTGGG (site AGCTTAGCTCC)
Ans: 0.0451
